As shown below, each of these binders has a reported LoD chemiluminescence detection value.
Biological target: T1, full length human tau protein 2N4R (hT40) (human, UniProt P10636 1-758)
T1 construct: recombinant; also called T441
T1 sequence (P10636 other isoform, or with tags, fused parts or gaps limits assumed): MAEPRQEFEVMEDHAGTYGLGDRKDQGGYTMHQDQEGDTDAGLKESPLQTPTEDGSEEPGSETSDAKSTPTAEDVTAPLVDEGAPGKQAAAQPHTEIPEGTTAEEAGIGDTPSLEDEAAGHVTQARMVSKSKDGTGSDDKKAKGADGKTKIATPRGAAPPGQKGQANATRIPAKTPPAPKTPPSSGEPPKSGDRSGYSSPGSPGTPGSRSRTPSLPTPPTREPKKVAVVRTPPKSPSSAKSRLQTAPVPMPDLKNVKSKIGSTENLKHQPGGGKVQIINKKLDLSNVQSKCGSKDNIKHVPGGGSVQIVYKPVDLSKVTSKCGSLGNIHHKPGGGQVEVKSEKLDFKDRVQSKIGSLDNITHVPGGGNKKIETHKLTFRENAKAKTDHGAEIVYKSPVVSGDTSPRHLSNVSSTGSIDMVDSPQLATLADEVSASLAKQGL
Experiment: sandwich ELISA, S1D12 mAb capture, scAb detection
Return type: number; implicit unit ng/mL.

Here is how some binders turned out for LoD chemiluminescence detection.
LoD chemiluminescence detection reported for this binder CC7 scAb (scFv, not shown: small tags and cut ends, scAb) scFv: QVQLQESGPSLVKPSQTLSLTCTVSGFSLTSNAVIWVRQAPGKAPEWVALIDVDGDAAYDPALKSRLSITRDTSKSQVSLSLRSVTTEDTAVYYCARDYGSWGYVSDIDYWGPGLLVTVSSEGKSSGASGESKVDDRVVRTQPSSVSGSLGQRVSITCSGSYITGSSVGWFQQVPGSGLKTVIYDNNDRPSGVPDRFSGSKSGDTATLTISSLQAEDEADYYCASYDTSNIGLFGSGTRLTVLG : 3.33

LoD chemiluminescence detection reported for this binder 412E10 scAb (scFv, not shown: small tags and cut ends, scAb) scFv: QVQLQESGPSLVKPSQTLSLTCTVSGFSVISDSVAWVRQAPGKVPEWLGASGSSGNKYYNPALKSRLSITRDTSKSQVSLSLSSVTTEDTAVYYCARGIIAGVDVWGRGLLVTVSSEGKSSGASGESKVDDQAVLTQPSSVSGSLGQRVSITCSGSSSNVGYGNYVGWYQQVPGSAPKLLIYGTAIRASGVPDRFSGSRSGDTATLTITSLQAEDEADYYCASYQSNYAFFGSGTRLTVLG : 0.37

Next:
LoD chemiluminescence detection reported for this binder S1G10 scAb (scFv, not shown: small tags and cut ends, scAb) scFv: QVQLQESGPSLVKPSQTLSLTCTVSGFSLTSNSVGWVRQAPGKAPEWVAGIDTDGEEGYNPALNSRLSITRDTSKSQVSLSLSSVTSEDTAVYYCGRSYRADGLAYGYVQAIDYWGPGLLVTVSSEGKSSGASGESKVDDQAVLTQPSSMSGSLGQRVSITCSGSFIGISSVGWFQQLPGSGLRTIIVASDGRPSGVPDRFSMSKSGNTATLTISSLQAEDEADYFCGSSDRTQYTGVFGSGTRLTVLG : 0.12
